Where do these numbers come from? They come from patent US5721240A.

Target: PNP (Calf spleen) (Bos taurus, UniProt P55859)
Construct: using calf spleen as the enzyme source; from tissue; host or cells: calf spleen
Sequence (P55859 whole entry): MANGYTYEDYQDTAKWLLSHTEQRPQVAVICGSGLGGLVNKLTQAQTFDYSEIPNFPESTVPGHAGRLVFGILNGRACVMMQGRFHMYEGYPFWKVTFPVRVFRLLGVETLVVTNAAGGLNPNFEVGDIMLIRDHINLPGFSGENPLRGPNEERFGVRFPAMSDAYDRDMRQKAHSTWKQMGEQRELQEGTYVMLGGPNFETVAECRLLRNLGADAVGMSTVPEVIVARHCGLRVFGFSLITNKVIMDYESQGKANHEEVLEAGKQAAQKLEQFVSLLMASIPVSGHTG
Experiment: in vitro PNP inhibition assay (radiochemical, [14C]-hypoxanthine formation from [14C]-inosine)
Format: biochemical
Test Readout: IC50 (µM)

[[record]]
compound = "Nc1nc2c(Cc3ccccc3)c(N)[nH]c2c(=O)[nH]1 [Phenyl, reference compound]"
test_readout = "IC50"
endpoint_result = 7.7

[[record]]
compound = "Nc1nc2c(Cc3cccc(Cl)c3)c[nH]c2c(=O)[nH]1"
test_readout = "IC50"
endpoint_result = 0.14

